test: Permeability of calcein through the empty barrier support (no lipid layer); assay type: in vitro ADME; settings: pH 7.4, calcein 5 mM donor, PBS acceptor
MEASURED ENDPOINT: Papp at 5 h, 5 mM

Record O=C(O)CN(CC(=O)O)Cc1cc2c(cc1O)Oc1cc(O)c(CN(CC(=O)O)CC(=O)O)cc1C21OC(=O)c2ccccc21 . Reported Papp at 5 h, 5 mM: 165 nm/s

---

assay: in vitro; details: pH 7.4, Papp in PBS
MEASURED ENDPOINT: Papp at 5 h, 5 mM (×10⁻⁶ cm/s)
Hi! Could you send only the number? It should be in ×10⁻⁶ cm/s, unit omitted.

The molecule O=C(O)CN(CC(=O)O)Cc1cc2c(cc1O)Oc1cc(O)c(CN(CC(=O)O)CC(=O)O)cc1C21OC(=O)c2ccccc21 showed Papp at 5 h, 5 mM equal to 2.7
